System: Heliothis virescens
experimentalProtocol: Oral injection of fifth-instar larvae, pupal and adult development (non-irradiated compounds)
Type: in vivo
experimentalContext: 1.0 microgram injected orally; % of larvae
assayEndpoint: Pupae (%)
Answers are plain numbers, in %.

Study these solved cases before continuing.
compound	subjectOfTest	Pupae (%)
C/C=C(\C)C(=O)OC1CC(O)C2(C(=O)OC)COC3C2C12COC(O)(C(=O)OC)C2C(C)(C12OC1(C)C1CC2OC2OC=CC21O)C3O (stereo not shown)	Heliothis virescens	33.1
C/C=C(\C)C(=O)O[C@H]1C[C@@H](OC(C)=O)[C@@]2(C(=O)OC)CO[C@H]3[C@@H](O)[C@@](C)([C@]45O[C@@]4(C)[C@H]4C[C@@H]5O[C@@H]5OC=C[C@@]54O)[C@H]4[C@]1(CO[C@]4(O)C(=O)OC)[C@@H]32	Heliothis virescens	6.7

Quick batch: Pupae (%) for everything below.
1. CCC(C)C(=O)OC1CC(OC(C)=O)C2(C(=O)OC)COC3C2C12COC(O)(C(=O)OC)C2C(C)(C12OC1(C)C1CC2OC2OCCC21O)C3O (stereo not shown) [2',3',22,23-tetrahydroazadirachtin]
2. C/C=C(\C)C(=O)OC1CC(OC(C)=O)C2(C(=O)OC)COC3C2C12COC(O)(C(=O)OC)C2C(C)(C12OC1(C)C1CC2OC2OCCC21O)C3O (stereo not shown) [22,23-dihydroazadirachtin]

### Response
7.4
26.7

###

For each record, write down the corresponding LC50.
Test system: Heliothis virescens
experimentalProtocol: Artificial diet feeding bioassay, mortality and growth inhibition in first-instar larvae
Type: in vivo, Heliothis virescens (tobacco budworm)
experimentalContext: Heliothis virescens, po
Numbers only, in µg/mL.

Study these solved cases before continuing.
                                   compound        subjectoftest  readingunit  reportedmeasurement
0  CC(=O)OCC12C(OC(=O)/C=C/c3ccccc3)CC(OC(C)=O)C3(C)COC(C31)C(O)C(C)(C13OC1(C)C1CC3OC3OC=CC31O)C2C(C)=O (stereo not shown)  Heliothis virescens        µg/mL                  1.5
1  CC(=O)C1C2(CO)C(O)CC(O)C3(C)COC(C32)C(O)C1(C)C12OC1(C)C1CC2OC2OC=CC21O (stereo not shown)  Heliothis virescens        µg/mL                   10
2  CC(=O)OC1CC(OC(=O)/C=C/c2ccccc2)C2(CO)C3C(OCC13C)C(O)C(C)(C13OC1(C)C1CC3OC3OC=CC31O)C2C(C)=O (stereo not shown)  Heliothis virescens        µg/mL                  1.5

Please turn your attention to the following entry.
### Prompt For the compound CC(=O)C1C2(CO)C(OC(=O)/C=C/c3ccccc3)CC(O)C3(C)COC(C32)C(O)C1(C)C12OC1(C)C1CC2OC2OC=CC21O (stereo not shown) , give its reported LC50.
### Response 1.5

###

Tested on: Heliothis virescens
experimentalProtocol: Relative activity of UV-irradiated compounds in inhibiting adult development of fifth-instar larvae
Type: in vivo
experimentalContext: 30 h UV exposure; relative to non-irradiated counterpart
For each record, write down the corresponding Relative activity, inhibition of adult development.
Give bare numbers, in %.

compound	readingUnit	reportedMeasurement
C/C=C(\C)C(=O)OC1CC(O)C2(C(=O)OC)COC3C2C12COC(O)(C(=O)OC)C2C(C)(C12OC1(C)C1CC2OC2OC=CC21O)C3O (stereo not shown)	%	106.3
CCC(C)C(=O)OC1CC(OC(C)=O)C2(C(=O)OC)COC3C2C12COC(O)(C(=O)OC)C2C(C)(C12OC1(C)C1CC2OC2OCCC21O)C3O (stereo not shown) [2',3',22,23-tetrahydroazadirachtin]	%	100.0
C/C=C(\C)C(=O)O[C@H]1C[C@@H](OC(C)=O)[C@@]2(C(=O)OC)CO[C@H]3[C@@H](O)[C@@](C)([C@]45O[C@@]4(C)[C@H]4C[C@@H]5O[C@@H]5OC=C[C@@]54O)[C@H]4[C@]1(CO[C@]4(O)C(=O)OC)[C@@H]32	%	101.3

### Prompt System Heliothis virescens. Read-out Relative activity, inhibition of adult development. Item C/C=C(\C)C(=O)OC1CC(OC(C)=O)C2(C(=O)OC)COC3C2C12COC(O)(C(=O)OC)C2C(C)(C12OC1(C)C1CC2OC2OCCC21O)C3O (stereo not shown) [22,23-dihydroazadirachtin] . Report value.
### Response 100.1
